# study_target: synthetic amyloid fibrils composed of recombinant Vλ6 protein Wil
# protocol_description: SPR
Square brackets hold non-standard residues; d marks the D form. Ends that are not written are not given here.
reported_metric: kd1 (two-state model, first step) (s⁻¹)

Study these solved cases before continuing.
{"binder": "VYKVKTKVKTKVKTKVKT [peptide p5(sheet)]", "uom": "s⁻¹", "kd1 (two-state model, first step)": 0.026}
{"binder": "GGGYSKAQKAPAKQAKQPQKAQKAPAKQAKQ [peptide p5(Pro3)]", "uom": "s⁻¹", "kd1 (two-state model, first step)": 0.045}
{"binder": "GGG[dY][dS][dK][dA][dQ][dK][dA][dQ][dA][dK][dQ][dA][dK][dQ][dA][dQ][dK][dA][dQ][dK][dA][dQ][dA][dK][dQ][dA][dK][dQ] [peptide p5(D)]", "uom": "s⁻¹", "kd1 (two-state model, first step)": 0.052}

I = GGGYSKGGKGGGKGGKGGGKGGKGGGKGGKG [peptide p5(coil)]
II = GGGYSKAQKAQAKQAKQAQKAQKAQAKQAKQ [peptide p5]
Ask | Select one: I or II . Criterion: greater recorded kd1 (two-state model, first step). Answer with the label corresponding to your selection.
Reply | II
(II: 0.203 s⁻¹, I: 0.001 s⁻¹)
